- Tested on: femoral artery
- Protocol Details: Effect on the femoral rate of flow (peripheral vasodilatation)
- Format: in vivo, mongrels
- Details: 1.5 ml into collateral of femoral artery; 28% I, Mgl salt
Assay Readout: Peripheral vasodilatation, femoral rate of flow

[[record]]
compound = "CNC(=O)c1c(I)c(NC(=O)CN(CC(=O)Nc2c(I)c(C(=O)NCCO)c(I)c(C(=O)NCCO)c2I)CC(=O)Nc2c(I)c(C(=O)NCCO)c(I)c(C(=O)NCCO)c2I)c(I)c(C(=O)O)c1I"
result = "+"

[[record]]
compound = "CNC(=O)c1c(I)c(NC(=O)CNC(=O)c2c(I)c(NC(=O)C(O)C(O)C(O)C(O)CO)c(I)c(C(=O)NC)c2I)c(I)c(C(=O)O)c1I (centres unmarked)"
result = "+"

[[record]]
compound = "CNC(=O)c1c(I)c(NC(C)=O)c(I)c(C(=O)O)c1I [a, reference compound]"
result = "+++"

[[record]]
compound = "CNC(=O)c1c(I)c(NC(=O)C(O)C(O)C(O)C(O)CO)c(I)c(C(=O)NCC(=O)Nc2c(I)c(C(=O)O)c(I)c(C(=O)NCCO)c2I)c1I (centres unmarked)"
result = "++"

[[record]]
compound = "CNC(=O)c1c(I)c(NC(=O)CCCNC(=O)c2c(I)c(C(=O)NCCO)c(I)c(N(C)C(C)=O)c2I)c(I)c(C(=O)O)c1I"
result = "++"

[[record]]
compound = "CNC(=O)c1c(I)c(C(=O)NCCCC(=O)Nc2c(I)c(C(=O)O)c(I)c(C(=O)NCCO)c2I)c(I)c(N(C)C(C)=O)c1I"
result = "+"

[[record]]
compound = "O=C(CCCCC(=O)Nc1c(I)cc(I)c(C(=O)O)c1I)Nc1c(I)cc(I)c(C(=O)O)c1I [e, reference compound]"
result = "++++"

[[record]]
compound = "CNC(=O)c1c(I)c(NC(=O)CCCCC(=O)Nc2c(I)c(C(=O)O)c(I)c(C(=O)NC)c2I)c(I)c(C(=O)O)c1I [c, reference compound]"
result = "++"

[[record]]
compound = "CC(=O)Nc1c(I)c(C(=O)NCC(=O)Nc2c(I)c(C(=O)O)c(I)c(C(=O)NCCO)c2I)c(I)c(N(C)C(C)=O)c1I"
result = "+"

[[record]]
compound = "CNC(=O)c1c(I)c(NC(=O)CNC(=O)c2c(I)c(C(=O)NCCO)c(I)c(N(C)C(C)=O)c2I)c(I)c(C(=O)O)c1I"
result = "++"

[[record]]
compound = "CNC(=O)c1c(I)c(C(=O)NCCCCCC(=O)Nc2c(I)cc(I)c(C(=O)O)c2I)c(I)c(N(C)C(C)=O)c1I"
result = "++++"

[[record]]
compound = "CNC(=O)c1c(I)c(C(=O)NCC(=O)Nc2c(I)cc(I)c(C(=O)O)c2I)c(I)c(N(C)C(C)=O)c1I"
result = "++++"

[[record]]
compound = "CC(=O)N(C)c1c(I)c(NC(=O)CN(CC(=O)Nc2c(I)c(C(=O)NCCO)c(I)c(C(=O)NCCO)c2I)CC(=O)Nc2c(I)c(C(=O)NCCO)c(I)c(C(=O)NCCO)c2I)c(I)c(C(=O)O)c1I"
result = "+"

[[record]]
compound = "CNC(=O)c1c(I)c(NC(=O)CCCNC(=O)c2c(I)c(C(=O)NC)c(I)c(N(C)C(C)=O)c2I)c(I)c(C(=O)O)c1I"
result = "+"

[[record]]
compound = "CNC(=O)c1c(I)c(C(=O)NC(C)C(=O)Nc2c(I)cc(I)c(C(=O)O)c2I)c(I)c(N(C)C(C)=O)c1I (centres unmarked)"
result = "+++"

[[record]]
compound = "CNC(=O)c1c(I)c(NC(=O)CNC(=O)c2c(I)cc(I)c(N(C)C(C)=O)c2I)c(I)c(C(=O)O)c1I"
result = "++++"

[[record]]
compound = "CNC(=O)c1c(I)c(C(=O)NCCCC(=O)N(C)c2c(I)c(C(=O)O)c(I)c(C(=O)NC)c2I)c(I)c(N(C)C(C)=O)c1I"
result = "++++"


* * *

Overview of reported Acute toxicity in mice, i.v. across a group of compounds:
- Tested on: mice
- Protocol Details: Acute toxicity determination, intravenous toxicity in mice
- Type: in vivo, mice (Swiss origin, IOPS mice of OFI strain)
- Details: 24 hours, 28% I, Mgl salt
Assay Readout: Acute toxicity in mice, i.v. (grams I/kg)

[[record]]
compound = "CNC(=O)c1c(I)c(NC(C)=O)c(I)c(C(=O)O)c1I [a, reference compound]"
assay_readout = "Acute toxicity in mice, i.v."
censoring_qualifier = "="
quantitative_result = 5.4

[[record]]
compound = "CNC(=O)c1c(I)c(NC(=O)CN(CC(=O)Nc2c(I)c(C(=O)NCCO)c(I)c(C(=O)NCCO)c2I)CC(=O)Nc2c(I)c(C(=O)NCCO)c(I)c(C(=O)NCCO)c2I)c(I)c(C(=O)O)c1I [Compound 31]"
assay_readout = "Acute toxicity in mice, i.v."
censoring_qualifier = "="
quantitative_result = 15

[[record]]
compound = "CNC(=O)c1c(I)c(NC(=O)CCCNC(=O)c2c(I)c(C(=O)NCCO)c(I)c(N(C)C(C)=O)c2I)c(I)c(C(=O)O)c1I [Compound 7]"
assay_readout = "Acute toxicity in mice, i.v."
censoring_qualifier = "="
quantitative_result = 5

[[record]]
compound = "CC(=O)N(C)c1c(I)c(NC(=O)CN(CC(=O)Nc2c(I)c(C(=O)NCCO)c(I)c(C(=O)NCCO)c2I)CC(=O)Nc2c(I)c(C(=O)NCCO)c(I)c(C(=O)NCCO)c2I)c(I)c(C(=O)O)c1I [Compound 32]"
assay_readout = "Acute toxicity in mice, i.v."
censoring_qualifier = "="
quantitative_result = 15

[[record]]
compound = "CNC(=O)c1c(I)c(C(=O)NCCCC(=O)N(C)c2c(I)c(C(=O)O)c(I)c(C(=O)NC)c2I)c(I)c(N(C)C(C)=O)c1I [Compound 37]"
assay_readout = "Acute toxicity in mice, i.v."
censoring_qualifier = "<"
quantitative_result = 6

[[record]]
compound = "CNC(=O)c1c(I)c(C(=O)NCCCC(=O)Nc2c(I)c(C(=O)O)c(I)c(C(=O)NCCO)c2I)c(I)c(N(C)C(C)=O)c1I [Compound 24]"
assay_readout = "Acute toxicity in mice, i.v."
censoring_qualifier = "="
quantitative_result = 8.5


* * *

- Protocol Details: Viscosity of 28% methylglucamine salt solutions at 37° C
- Type: physicochemical
- Details: 28% iodine methylglucamine salt solution
Assay Readout: Viscosity (cps)

[[record]]
molecule = "CNC(=O)c1c(I)c(NC(=O)CNC(=O)c2c(I)c(C(=O)NCCO)c(I)c(N(C)C(C)=O)c2I)c(I)c(C(=O)O)c1I [Compound 8]"
quantitative_result = 5.5

[[record]]
molecule = "CNC(=O)c1c(I)c(NC(=O)CNC(=O)c2c(I)c(C(=O)NC)c(I)c(N(C)C(C)=O)c2I)c(I)c(C(=O)O)c1I [Compound 9]"
quantitative_result = 5.8

[[record]]
molecule = "CNC(=O)c1c(I)c(NC(=O)CN(CC(=O)Nc2c(I)c(C(=O)NCCO)c(I)c(C(=O)NCCO)c2I)CC(=O)Nc2c(I)c(C(=O)NCCO)c(I)c(C(=O)NCCO)c2I)c(I)c(C(=O)O)c1I [Compound 31]"
quantitative_result = 10.2

[[record]]
molecule = "CNC(=O)c1c(I)c(C(=O)NCCCC(=O)Nc2c(I)c(C(=O)O)c(I)c(C(=O)NCCO)c2I)c(I)c(N(C)C(C)=O)c1I [Compound 24]"
quantitative_result = 6

[[record]]
molecule = "CNC(=O)c1c(I)c(C(=O)NCC(=O)Nc2c(I)c(C(=O)O)c(I)c(C(=O)NCCO)c2I)c(I)c(N(C)C(C)=O)c1I [Compound 1]"
quantitative_result = 5.4

[[record]]
molecule = "CC(=O)Nc1c(I)c(C(=O)NCC(=O)Nc2c(I)c(C(=O)O)c(I)c(C(=O)NCCO)c2I)c(I)c(N(C)C(C)=O)c1I [Compound 6]"
quantitative_result = 5.2

[[record]]
molecule = "CNC(=O)c1c(I)c(NC(C)=O)c(I)c(C(=O)NCC(=O)Nc2c(I)c(C(=O)O)c(I)c(C(=O)NCCO)c2I)c1I [Compound 3]"
quantitative_result = 5.72

[[record]]
molecule = "CNC(=O)c1c(I)c(NC(=O)CCCNC(=O)c2c(I)c(C(=O)NC)c(I)c(N(C)C(C)=O)c2I)c(I)c(C(=O)O)c1I [Compound 2]"
quantitative_result = 6.56

[[record]]
molecule = "CNC(=O)c1c(I)c(NC(C)=O)c(I)c(C(=O)NCC(=O)N(C)c2c(I)c(C(=O)O)c(I)c(C(=O)NC)c2I)c1I [Compound 14]"
quantitative_result = 5.2


* * *

Attribute: Biliary clearance in cat, i.v.
- Protocol Details: Biliary clearance test in cats
- Type: in vivo
- Details: in vivo, iv
- Method: This test was conducted in male or female adult cats weighing 3-4 kg. The test material was injected intravenously, at a dosage of 0.10 g/kg iodine at the level of the internal saphenous vein. Clearance of the material was monitored by X-ray control. X-ray pictures visualizing the gall bladder and the bladder were taken at the following times: 30 minutes, 1 hour, 2 hours, 3 hours, 4 hours, 5 hours, 6 hours.
Assay Readout: Biliary clearance in cat, i.v.

[[record]]
molecule = "CNC(=O)c1c(I)c(NC(C)=O)c(I)c(C(=O)O)c1I [a, reference compound]"
quantitative_result = 0

[[record]]
molecule = "CNC(=O)c1c(I)c(NC(=O)CNC(=O)c2c(I)c(NC(=O)CNC(=O)c3c(I)c(NC(C)=O)c(I)c(C(=O)NC)c3I)c(I)c(N(C)C(C)=O)c2I)c(I)c(C(=O)O)c1I"
quantitative_result = 0

[[record]]
molecule = "CNC(=O)c1c(I)c(NC(=O)CNC(=O)c2c(I)c(NC(=O)CNC(=O)c3c(I)c(C(=O)NC)c(I)c(N(C)C(C)=O)c3I)c(I)c(N(C)C(C)=O)c2I)c(I)c(C(=O)O)c1I"
quantitative_result = 0

